Assay: Microsomal stability, rat liver microsomes
Type: in vitro ADME
Conditions: 3 μM compound
Provide the reported microsomal stability, percentage of compound remaining after 60 min, Rat of each item.
Answer format: numeric, % implied, no suffix.

// query microsomal stability, percentage of compound remaining after 60 min, Rat value for entry O=C(Nc1nc2cccc(-c3ccc(CN4CCC(F)(F)CC4)cc3)n2n1)C1CC1
26

// query microsomal stability, percentage of compound remaining after 60 min, Rat value for entry O=C(Nc1nc2cccc(-c3ccc(C(=O)N4CCS(=O)(=O)CC4)cc3)n2n1)C1CC1
89

// query microsomal stability, percentage of compound remaining after 60 min, Rat value for entry O=C(Nc1nc2cccc(-c3ccc(CN4CCS(=O)(=O)CC4)cc3)n2n1)C1CC1
65.6

// query microsomal stability, percentage of compound remaining after 60 min, Rat value for entry O=C(Nc1nc2cccc(-c3ccc(CN4CCOCC4)cc3)n2n1)C1CC1
38

* * *

Test: Microsomal stability, human liver microsomes
Format: in vitro ADME
Conditions: 3 μM compound
Property name: microsomal stability, percentage of compound remaining after 60 min, Human
Remember to follow the number with its unit.

// query microsomal stability, percentage of compound remaining after 60 min, Human value for entry O=C(Nc1nc2cccc(-c3ccc(CN4CCC(F)(F)CC4)cc3)n2n1)C1CC1
51%

// query microsomal stability, percentage of compound remaining after 60 min, Human value for entry O=C(Nc1nc2cccc(-c3ccc(CN4CCOCC4)cc3)n2n1)C1CC1
73%

// query microsomal stability, percentage of compound remaining after 60 min, Human value for entry O=C(Nc1nc2cccc(-c3ccc(C(=O)N4CCS(=O)(=O)CC4)cc3)n2n1)C1CC1
102%

// query microsomal stability, percentage of compound remaining after 60 min, Human value for entry O=C(Nc1nc2cccc(-c3ccc(CN4CCS(=O)(=O)CC4)cc3)n2n1)C1CC1
87.2%

* * *

Provide the reported C0 of each item.
Assay: Pharmacokinetic study in rodents (Sprague-Dawley rats)
Format: in vivo
Conditions: male, plasma; Sprague-Dawley rat, IV 1 mg/kg

// query C0 value for entry O=C(Nc1nc2cccc(-c3ccc(CN4CCS(=O)(=O)CC4)cc3)n2n1)C1CC1
1410 ng/mL

// query C0 value for entry O=C(Nc1nc2cccc(-c3ccc(CN4CCOCC4)cc3)n2n1)C1CC1
863 ng/mL
